# target.system: human histamine H4 receptor (Homo sapiens, UniProt Q9H3N8)
# Construct: cell membranes
# Sequence (Q9H3N8 whole entry): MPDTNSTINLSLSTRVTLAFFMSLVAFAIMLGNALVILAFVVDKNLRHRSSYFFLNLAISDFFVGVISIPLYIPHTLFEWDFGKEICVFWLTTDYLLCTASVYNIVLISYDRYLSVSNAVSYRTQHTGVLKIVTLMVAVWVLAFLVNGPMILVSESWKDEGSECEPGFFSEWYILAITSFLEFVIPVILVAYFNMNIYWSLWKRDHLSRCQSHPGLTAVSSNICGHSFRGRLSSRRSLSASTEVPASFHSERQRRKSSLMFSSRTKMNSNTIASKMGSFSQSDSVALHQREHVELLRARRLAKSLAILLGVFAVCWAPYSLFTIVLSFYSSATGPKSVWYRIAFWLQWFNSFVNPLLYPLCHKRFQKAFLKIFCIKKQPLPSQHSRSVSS
# procedure.summary: Binding assay on recombinant human histamine H4 receptor (3H-histamine displacement)
# cond: membranes of SK-N-MC or COS7 cells expressing human H4 receptor, Cheng-Prusoff
measurement.label: pKi
The meaning of pKi here: minus log10 of the concentration in molar units.

Consider the reported pKi for these molecules:
Cc1ccc(-c2nc(-c3ccc(OCCCN4CCN(C)CC4)cc3Cl)[nH]c2-c2ccc(C)cc2)cc1 = 7.62
Cc1[nH]c(-c2ccc(OCCCC3CCN(C)CC3)cc2Cl)nc1-c1cccc(C(F)(F)F)c1 = 6.78
Cc1[nH]c(-c2ccc(OCCCC3CCN(C)CC3)cc2Cl)nc1-c1cc(Cl)cc(Cl)c1 = 7.28
CN1CCN(CCCOc2ccc(-c3nc(-c4ccccc4)c(-c4ccccc4)[nH]3)c(Cl)c2)CC1 = 7.41
Cc1cc(OCCCC2CCN(C)CC2)ccc1-c1nc(-c2ccccc2)c(C(F)(F)F)[nH]1 = 7.49
Cc1cc(OCCCC2CCN(C)CC2)ccc1-c1nc(C)c(CC(C)C)[nH]1 = 6.64
COc1cccc(-c2nc(-c3ccc(OCCCN4CCN(C)CC4)cc3Cl)[nH]c2-c2cccc(OC)c2)c1 = 7.68

Switching to the query record.
Please give the documented pKi of Cc1[nH]c(-c2ccc(OCCCN3CCN(C)CC3)nc2)nc1-c1cccc(C(F)(F)F)c1
7.20

====

# target.system: human histamine H4 receptor (Homo sapiens)
# Construct: expressed in transfected cells; host or cells: SK-N-MC cells or COS7 cells, transient transfection; cell membranes
# procedure.summary: Binding assay on recombinant human histamine H4 receptor (3H-histamine displacement)
# cond: membranes of SK-N-MC or COS7 cells expressing human H4 receptor, Cheng-Prusoff
One threshold, 60 nM, splits the recorded Ki values: lower ones are Satisfied, equal or higher ones are Not satisfied.

Would you please look over these solved cases?
Cc1[nH]c(-c2ccc(OCCCC3CCN(C)CC3)nc2)nc1-c1ccc(Cl)cc1 [Example 28] = Not satisfied
Cc1[nH]c(-c2cccc(OCCCCC3CCN(C)CC3)c2)nc1-c1ccc(Cl)cc1 [Example 34] = Satisfied
Cc1cc(OCCCC2CCN(C)CC2)ccc1-c1nc(-c2cc(Cl)cc(Cl)c2)c(C)[nH]1 [Example 18] = Satisfied
CN1CCN(CCCOc2ccc(-c3nc(-c4ccccc4)c(C(F)(F)F)[nH]3)c(Cl)c2)CC1 [Example 44] = Satisfied
CCc1[nH]c(-c2ccc(OCCCC3CCN(C)CC3)cc2Cl)nc1C [Example 25] = Not satisfied
Cc1[nH]c(-c2ccc(OCCCN3CCN(C)CC3)nc2)nc1-c1ccc(C(F)(F)F)cc1 [Example 32] = Not satisfied
COc1cccc(-c2nc(-c3ccc(OCCCN4CCCN(C)CC4)cc3Cl)[nH]c2-c2cccc(OC)c2)c1 [Example 10] = Satisfied

Please turn your attention to the following entry.
In plain terms, does CN1CCC(CCCCOc2cccc(-c3nc(-c4ccccc4)c(C(F)(F)F)[nH]3)c2)CC1 [Example 35] come in under 60 nM for Ki?
Satisfied

====

# target.system: human histamine H4 receptor (Homo sapiens, UniProt Q9H3N8)
# Construct: expressed in transfected cells; host or cells: SK-N-MC cells or COS7 cells, transient transfection; cell membranes
# procedure.summary: Binding assay on recombinant human histamine H4 receptor (3H-histamine displacement)
# cond: membranes of SK-N-MC or COS7 cells expressing human H4 receptor, Cheng-Prusoff
measurement.label: pKi
Please treat pKi as minus the base-10 logarithm of the molar concentration.

Quickly give me recorded pKi for Cc1[nH]c(-c2ccc(OCCCN3CCCN(C)CC3)c(Cl)c2)nc1-c1ccccc1
7.15

Tell me measured pKi for CN1CCN(CCCOc2ccc(-c3nc(-c4ccc(F)cc4)c(-c4ccc(F)cc4)[nH]3)c(Cl)c2)CC1 please.
7.54

// Input: Cc1[nH]c(-c2ccnc(OCCCCC3CCN(C)CC3)c2)nc1-c1cccc(C(F)(F)F)c1 . Output its pKi only.
6.76

Respond only with pKi recorded for CN1CCN(CCCOc2ccc(-c3ncc[nH]3)cc2Cl)CC1
5.71

Give reported pKi value for Cc1[nH]c(-c2ccc(OCCCC3CCN(C)CC3)nc2)nc1-c1cccc(C(F)(F)F)c1
7.38

Give pKi for CN1CCCN(CCCOc2ccc(-c3nc(-c4ccc(Br)cc4)c(-c4ccc(Br)cc4)[nH]3)c(Cl)c2)CC1
7.96

For the compound CN1CCC(CCCCOc2cccc(-c3nc4cccnc4[nH]3)c2)CC1 , give its measured pKi value.
5.85

====

# target.system: human histamine H4 receptor (Homo sapiens)
# Construct: cell membranes
# procedure.summary: Binding assay on recombinant human histamine H4 receptor (3H-histamine displacement)
# cond: membranes of SK-N-MC or COS7 cells expressing human H4 receptor, Cheng-Prusoff
measurement.label: pKi
Kindly note that pKi refers to -log10 of the concentration in mol/L and answer with the value alone.

Examples from the recorded data:
CN1CCC(CCCCOc2cc(-c3nc(-c4ccccc4)c(C(F)(F)F)[nH]3)ccn2)CC1 [Example 36] = 7.27
Cc1[nH]c(-c2ccnc(OCCCCC3CCN(C)CC3)c2)nc1-c1ccc(Cl)cc1 [Example 39] = 6.64
CN1CCCN(CCCOc2ccc(-c3nc4c([nH]3)CCCC4)c(Cl)c2)CC1 [Example 13] = 7.49
CN1CCC(CCCOc2ccc(-c3nc4c([nH]3)CCCC4)c(Cl)c2)CC1 [Example 23] = 6.81
CN1CCC(CCCOc2ccc(-c3nc(-c4ccc(F)cc4)c(-c4ccc(F)cc4)[nH]3)c(Cl)c2)CC1 [Example 20] = 7.41
Cc1nc(-c2ccc(OCCCC3CCN(C)CC3)cc2Cl)[nH]c1CC(C)C [Example 40] = 7.03
CN1CCCN(CCCOc2ccc(-c3nc(-c4ccccc4)c(C(F)(F)F)[nH]3)cc2Cl)CC1 [Example 45] = 7.10
CN1CCN(CCCOc2ccc(-c3nc(-c4ccc(Br)cc4)c(-c4ccc(Br)cc4)[nH]3)c(Cl)c2)CC1 [Example 1] = 7.85
COc1ccc(-c2nc(-c3ccc(OCCCN4CCN(C)CC4)cc3Cl)[nH]c2-c2ccc(OC)cc2)cc1 [Example 4] = 7.36

Quote human histamine H4 receptor (Homo sapiens) pKi for entry Cc1nc(-c2ccc(OCCCN3CCN(C)CC3)cc2Cl)[nH]c1C [Example 43] .
5.60
